Test system: 22Rv1 cells
Test: Cell-based assay, anti-proliferative activity (Cell Counting Kit-8, 72 hours)
Design: species or system human
Conditions: Homo sapiens, 22Rv1, 72 h, read-out: IC50 (μM) (22Rvl)
Where a name gives a salt, the structure may show the parent alone.
parameter: IC50 (µM)
Numbers only, in µM.

CNC1CCN(c2ccc(Nc3c(C(C)=O)cnc4ccc(-c5cc(F)c(O)c(Cl)c5)nc34)cn2)C1 (stereo not shown) [Example 54, trihydrochloride] : 0.086
CC(=O)c1cnc2ccc(-c3cc(F)c(O)c(Cl)c3)nc2c1N[C@H]1CC[C@H](CN(C)CCO)CC1 [Example 49, dihydrochloride] : 0.0087
CC(=O)c1cnc2ccc(-c3cc(Cl)c(O)c(Cl)c3)nc2c1Nc1ccc(CN2CCN(C)CC2)cc1 [Example 34, trihydrochloride] : 0.21
N[C@H]1CCCN(c2ccc(Nc3c(C(=O)C4CCC4)cnc4ccc(-c5cc(F)c(O)c(Cl)c5)nc34)cn2)C1 [Example 210, dihydrochloride] : 0.017
CC(=O)c1cnc2ccc(-c3ccc(C#N)nc3)nc2c1N[C@H]1CC[C@H](CN(C)C)CC1 [Example 87, dihydrochloride] : 0.66
CN(C)C[C@H]1CC[C@H](Nc2c(C(=O)C3CCC3)cnc3ccc(-c4cc(F)c(O)c(Cl)c4)nc23)CC1 [Example 212, dihydrochloride] : 0.013

Hi there! I need IC50 for each item below, if you can.
1. CC(=O)c1cnc2ccc(-c3cc(F)c(O)c(Cl)c3)nc2c1NC[C@H]1CC[C@H](N(C)C)CC1 [Example 90, dihydrochloride]
2. CC(=O)c1cnc2ccc(-c3cc(F)c(O)c(Cl)c3)nc2c1N[C@H]1CC[C@H](NC(=O)C(N)C(C)C)CC1 (stereo partly shown) [Example 69, dihydrochloride]
3. CC(=O)c1cnc2ccc(-c3cc(Cl)c(O)c(Cl)c3)nc2c1N[C@H]1CC[C@H](CCN(C)C)CC1 [Example 9, dihydrochloride]
4. CC(=O)c1cnc2ccc(-c3cc(Cl)c(O)c(Cl)c3)nc2c1N[C@H]1CC[C@H](CN2CC[C@@H](F)C2)CC1 [Example 209, dihydrochloride]
5. CC(=O)c1cnc2ccc(-c3cc(Cl)c(O)c(Cl)c3)nc2c1Nc1ccc(OCCN(C)C)nc1 [Example 21, dihydrochloride]
6. CC(=O)c1cnc2ccc(-c3cc(F)c(O)c(Cl)c3)nc2c1Nc1ccc(CCN(C)C)cc1 [Example 30, dihydrochloride]
7. CC(=O)c1cnc2ccc(-c3cc(F)c(O)c(Cl)c3)nc2c1N1CCC(CCN2CCCC2)CC1 [Example 37, dihydrochloride]

Completion:
[0.052, 0.025, 0.011, 0.032, 0.27, 0.17, 0.49]

Provide IC50 values for the following items, in order.
1. CN(C)Cc1ccc(Nc2c(S(C)(=O)=O)cnc3ccc(-c4cc(F)c(O)c(Cl)c4)nc23)cc1 [Example 17, dihydrochloride]
2. COc1cc(-c2ccc3ncc(C(C)=O)c(Nc4ccc(OCCN(C)C)nc4)c3n2)cc(Cl)c1O [Example 23, dihydrochloride]
3. CC(=O)c1cnc2ccc(-c3cc(F)c(O)c(F)c3)nc2c1N[C@H]1CC[C@H](CN(C)C)CC1 [Example 50, dihydrochloride]

Completion:
[0.33, 1.3, 0.017]

---

Answer each item with its documented IC50.
System: HT1197 cells
Experiment: Cell-based assay, anti-proliferative activity, MELK-negative control (Cell Counting Kit-8, 72 hours)
Set-up: species or system human
Settings: Homo sapiens, HT1197, 72 h, read-out: IC50 (μM) (HTll97)
Procedure: 100 micro-L of cell suspension was seeded onto 96-well microtiter plate (ViewPlate-96FTC, PerkinElmer). The initial cell concentration of 22Rv1, T47D, A549, DU4475, and HT1197 were 3,000 cells/well, 2,000 cells/well and 2,500 cells/well, respectively. Cellular growth was determined using Cell Counting Kit-8 (DOJINDO) at 72 hours after the exposure of the candidate inhibitors. […] Accurate IC50 values were calculated as described previously.
Structures can show the parent of a compound that is named as a salt.
Numbers only, in µM.

# example entries with known answers
CNC1CCN(c2ccc(Nc3c(C(C)=O)cnc4ccc(-c5cc(F)c(O)c(Cl)c5)nc34)cn2)C1 (stereo not shown) [Example 54, trihydrochloride] : 3.9
CC(=O)c1cnc2ccc(-c3cc(F)c(O)c(Cl)c3)nc2c1Nc1ccc(N2CCC(N(C)C)C2)nc1 (stereo not shown) [Example 52, trihydrochloride] : 2
CN(C)C[C@H]1CC[C@H](Nc2c(C(=O)C3CC3)cnc3ccc(-c4cc(Cl)c(O)c(Cl)c4)nc23)CC1 [Example 4, dihydrochloride] : 0.036
CC(=O)c1cnc2ccc(-c3cnc4[nH]ccc4c3)nc2c1N[C@H]1CC[C@H](CN(C)C)CC1 [Example 82, trihydrochloride] : 2.3
CC(=O)c1cnc2ccc(N3CCC(O)C3)nc2c1N[C@H]1CC[C@H](CN2CCC(O)C2)CC1 (stereo partly shown) : 10
CC(=O)c1cnc2ccc(-c3cc(Cl)c(O)c(Cl)c3)nc2c1N[C@H]1CC[C@H](CO)CC1 [Example 43, hydrochloride] : 0.64

Record IC50 for all entries; do not skip any.
1. CC(=O)c1cnc2ccc(-c3cc(Cl)c(O)c(Cl)c3)nc2c1N[C@H]1CC[C@@H](CN(C)C)CC1 [Example 94, dihydrochloride]
2. CC(=O)c1cnc2ccc(-c3cc(Cl)c(O)c(Cl)c3)nc2c1Nc1ccc(N2CCC[C@@H](N)C2)nc1 [Example 95, trihydrochloride]
3. CC(=O)c1cnc2ccc(-c3ccc(O)cc3)nc2c1N[C@H]1CC[C@H](CN(C)C)CC1 [Example 88, dihydrochloride]
4. CC(=O)c1cnc2ccc(-c3cc(Cl)c(O)c(Cl)c3)nc2c1Nc1ccc(N2CCCC(N)C2)nc1 (stereo not shown) [Example 64, trihydrochloride]

Completion:
1. 0.25
2. 1.9
3. 0.039
4. 2.9

---

Please respond with reported IC50 for every item in the list.
Test system: 22Rv1 cells
Test: Cell-based assay, anti-proliferative activity (Cell Counting Kit-8, 72 hours)
Set-up: species or system human
Conditions: Homo sapiens, 22Rv1, 72 h, read-out: IC50 (μM) (22Rvl)
Counter-ions that a name gives are not always drawn.
Give bare numbers, in µM.

Known results for molecules:
CC(=O)c1cnc2ccc(-c3cc(Cl)c(O)c(Cl)c3)nc2c1N1CCC(CCN2CCCC2)CC1 [Example 36, dihydrochloride] : 0.36
CC(=O)c1cnc2ccc(-c3cc(Cl)c(O)c(Cl)c3)nc2c1N[C@H]1CC[C@H](CN2CCNCC2)CC1 [Example 70, trihydrochloride] : 0.031

Kindly give each listed record's IC50.
1. N[C@H]1CCCN(c2ccc(Nc3c(C(=O)C4CC4)cnc4ccc(-c5cc(Cl)c(O)c(Cl)c5)nc34)cn2)C1 [Example 40, trihydrochloride]
2. CC(=O)c1cnc2ccc(-c3cc(C)c(O)c(C)c3)nc2c1N[C@H]1CC[C@H](CN(C)C)CC1 [Example 59, dihydrochloride]

Completion:
1. 0.034
2. 2.5

Please report IC50 for every entry that follows.
1. CC(=O)c1cnc2ccc(-c3cc(Cl)c(O)c(Cl)c3)nc2c1NC1CCN(C)CC1
2. CC(=O)c1cnc2ccc(-c3cc(F)c(O)c(Cl)c3)nc2c1N[C@H]1CC[C@H](CN(C)C)CC1 [Example 7, dihydrochloride]

Completion:
0.096
0.0061

---

Target: MELK (Homo sapiens, UniProt Q14680)
Sequence (Q14680 whole entry, looked up): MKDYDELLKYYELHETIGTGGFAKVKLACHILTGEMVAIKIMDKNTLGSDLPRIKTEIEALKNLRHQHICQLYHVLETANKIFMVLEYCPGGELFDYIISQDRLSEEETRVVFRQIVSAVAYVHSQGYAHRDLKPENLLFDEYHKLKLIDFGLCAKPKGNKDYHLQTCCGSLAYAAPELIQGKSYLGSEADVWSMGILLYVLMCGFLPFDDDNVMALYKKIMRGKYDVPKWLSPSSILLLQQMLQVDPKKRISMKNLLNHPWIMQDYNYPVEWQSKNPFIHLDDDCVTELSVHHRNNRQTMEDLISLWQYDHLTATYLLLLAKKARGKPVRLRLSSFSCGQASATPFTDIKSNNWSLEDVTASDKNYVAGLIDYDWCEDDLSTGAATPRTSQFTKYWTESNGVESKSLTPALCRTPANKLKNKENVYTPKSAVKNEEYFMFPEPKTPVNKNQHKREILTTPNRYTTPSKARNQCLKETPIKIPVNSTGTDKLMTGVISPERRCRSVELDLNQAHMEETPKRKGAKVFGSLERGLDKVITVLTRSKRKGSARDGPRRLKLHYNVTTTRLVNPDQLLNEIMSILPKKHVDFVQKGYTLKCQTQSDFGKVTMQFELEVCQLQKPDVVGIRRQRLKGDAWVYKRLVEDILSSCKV
Assay: Kinase assay (IMAP fluorescence polarization, FITC-labeled histone H3 peptide)
Assay type: biochemical
Conditions: 50 micro-M ATP
Counter-ions that a name gives are not always drawn.
Mark each entry satisfied if its IC50 sits below 0.002 µM, and not satisfied for all others.

Example entries begin here.
CC(=O)c1cnc2ccc(-c3cc(F)c(O)c(Cl)c3)nc2c1N1CCC(CCN2CCCC2)CC1 [Example 37, dihydrochloride] : not satisfied
CC(=O)c1cnc2ccc(-c3cc(Cl)c(O)c(Cl)c3)nc2c1Nc1ccc(CN2CCCC2)cc1 [Example 60, dihydrochloride] : not satisfied
CC(=O)c1cnc2ccc(-c3cnc(C#N)nc3)nc2c1N[C@H]1CC[C@H](CN(C)C)CC1 : satisfied

Prompt: Criterion: IC50 strictly below 0.002 µM. Is it met by CC(=O)c1cnc2ccc(-c3cc(F)c(O)c(Cl)c3)nc2c1N[C@H]1CC[C@H](CN(C)C)CC1 [Example 7, dihydrochloride] ?
Completion: satisfied

Prompt: Would you kindly verify if IC50 of CC(=O)c1cnc2ccc(-c3cc(Cl)c(O)c(Cl)c3)nc2c1Nc1ccc(N2CCC(N(C)C)C2)nc1 (stereo not drawn) [Example 51, trihydrochloride] is strictly less than 0.002 µM?
Completion: not satisfied

---

System: 22Rv1 cells
Assay: Cell-based assay, anti-proliferative activity (Cell Counting Kit-8, 72 hours)
Design: species or system human
Details: Homo sapiens, 22Rv1, 72 h, read-out: IC50 (μM) (22Rvl)
Where a name gives a salt, the structure may show the parent alone.
Just a reminder that ties go to no (0): only IC50 strictly below 0.02 µM counts as yes (1).

Prompt: Is 0.02 µM strictly greater than the molecule's reported IC50? molecule: N[C@@H]1CCCN(c2ccc(Nc3c(C(=O)C4CC4)cnc4ccc(-c5cc(Cl)c(O)c(Cl)c5)nc34)cn2)C1
Completion: yes (1)

Prompt: Hello, is IC50 of the following molecule strictly smaller than 0.02 µM? CC(=O)c1cnc2ccc(N3CCCC3)nc2c1N[C@H]1CC[C@H](CN2CCCC2)CC1
Completion: no (0)

Prompt: I wonder whether CC(=O)c1cnc2ccc(-c3cc(F)c(O)c(Cl)c3)nc2c1N[C@H]1CC[C@@H](CN(C)C)CC1 [Example 93, dihydrochloride] has IC50 below 0.02 µM. Can you tell?
Completion: no (0)

Prompt: Below 0.02 µM on IC50? Entry CN(C)C[C@H]1CC[C@H](Nc2c(S(C)(=O)=O)cnc3ccc(-c4cc(F)c(O)c(Cl)c4)nc23)CC1 [Example 13, dihydrochloride]
Completion: yes (1)

Prompt: # check: IC50 < 0.02 µM for COc1cc(-c2ccc3ncc(C(C)=O)c(N[C@H]4CC[C@H](CN(C)C)CC4)c3n2)cc(Cl)c1O [Example 8, dihydrochloride]
Completion: no (0)

Prompt: Hello, I'm reviewing records and need to know if IC50 of CC(=O)c1cnc2ccc(-c3cc(Cl)c(O)c(Cl)c3)nc2c1N[C@H]1CC[C@H](CN(C)C)CC1 [Example 6, dihydrochloride] is below 0.02 µM. Could you check?
Completion: yes (1)

Prompt: Is IC50 of COc1cc(-c2ccc3ncc(C(C)=O)c(Nc4ccc(CCN(C)C)cc4)c3n2)cc(Cl)c1O [Example 31, dihydrochloride] strictly below 0.02 µM?
Completion: no (0)

Prompt: Consider CC(=O)c1cnc2ccc(-c3cc(Cl)c(O)c(Cl)c3)nc2c1N[C@H]1CC[C@H](NC(=O)C(C)N)CC1 (stereo partly shown) [Example 73, dihydrochloride] . Does its IC50 lie strictly below 0.02 µM?
Completion: no (0)

Prompt: Is IC50 of CC(=O)c1cnc2ccc(N3CCC(O)C3)nc2c1N[C@H]1CC[C@H](CN2CCC(O)C2)CC1 (stereo partly shown) strictly below 0.02 µM?
Completion: no (0)

Prompt: Is 0.02 µM strictly greater than the molecule's reported IC50? molecule: CC(=O)c1cnc2ccc(-c3cc(Cl)c(O)c(Cl)c3)nc2c1N[C@H]1CC[C@H](CO)CC1 [Example 43, hydrochloride]
Completion: no (0)
